Measured on: Bromodomain adjacent to zinc finger domain protein 2B (Homo sapiens) (UniProt Q9UIF8)
Sequence (Q9UIF8 whole entry, looked up, the tested form may be a part): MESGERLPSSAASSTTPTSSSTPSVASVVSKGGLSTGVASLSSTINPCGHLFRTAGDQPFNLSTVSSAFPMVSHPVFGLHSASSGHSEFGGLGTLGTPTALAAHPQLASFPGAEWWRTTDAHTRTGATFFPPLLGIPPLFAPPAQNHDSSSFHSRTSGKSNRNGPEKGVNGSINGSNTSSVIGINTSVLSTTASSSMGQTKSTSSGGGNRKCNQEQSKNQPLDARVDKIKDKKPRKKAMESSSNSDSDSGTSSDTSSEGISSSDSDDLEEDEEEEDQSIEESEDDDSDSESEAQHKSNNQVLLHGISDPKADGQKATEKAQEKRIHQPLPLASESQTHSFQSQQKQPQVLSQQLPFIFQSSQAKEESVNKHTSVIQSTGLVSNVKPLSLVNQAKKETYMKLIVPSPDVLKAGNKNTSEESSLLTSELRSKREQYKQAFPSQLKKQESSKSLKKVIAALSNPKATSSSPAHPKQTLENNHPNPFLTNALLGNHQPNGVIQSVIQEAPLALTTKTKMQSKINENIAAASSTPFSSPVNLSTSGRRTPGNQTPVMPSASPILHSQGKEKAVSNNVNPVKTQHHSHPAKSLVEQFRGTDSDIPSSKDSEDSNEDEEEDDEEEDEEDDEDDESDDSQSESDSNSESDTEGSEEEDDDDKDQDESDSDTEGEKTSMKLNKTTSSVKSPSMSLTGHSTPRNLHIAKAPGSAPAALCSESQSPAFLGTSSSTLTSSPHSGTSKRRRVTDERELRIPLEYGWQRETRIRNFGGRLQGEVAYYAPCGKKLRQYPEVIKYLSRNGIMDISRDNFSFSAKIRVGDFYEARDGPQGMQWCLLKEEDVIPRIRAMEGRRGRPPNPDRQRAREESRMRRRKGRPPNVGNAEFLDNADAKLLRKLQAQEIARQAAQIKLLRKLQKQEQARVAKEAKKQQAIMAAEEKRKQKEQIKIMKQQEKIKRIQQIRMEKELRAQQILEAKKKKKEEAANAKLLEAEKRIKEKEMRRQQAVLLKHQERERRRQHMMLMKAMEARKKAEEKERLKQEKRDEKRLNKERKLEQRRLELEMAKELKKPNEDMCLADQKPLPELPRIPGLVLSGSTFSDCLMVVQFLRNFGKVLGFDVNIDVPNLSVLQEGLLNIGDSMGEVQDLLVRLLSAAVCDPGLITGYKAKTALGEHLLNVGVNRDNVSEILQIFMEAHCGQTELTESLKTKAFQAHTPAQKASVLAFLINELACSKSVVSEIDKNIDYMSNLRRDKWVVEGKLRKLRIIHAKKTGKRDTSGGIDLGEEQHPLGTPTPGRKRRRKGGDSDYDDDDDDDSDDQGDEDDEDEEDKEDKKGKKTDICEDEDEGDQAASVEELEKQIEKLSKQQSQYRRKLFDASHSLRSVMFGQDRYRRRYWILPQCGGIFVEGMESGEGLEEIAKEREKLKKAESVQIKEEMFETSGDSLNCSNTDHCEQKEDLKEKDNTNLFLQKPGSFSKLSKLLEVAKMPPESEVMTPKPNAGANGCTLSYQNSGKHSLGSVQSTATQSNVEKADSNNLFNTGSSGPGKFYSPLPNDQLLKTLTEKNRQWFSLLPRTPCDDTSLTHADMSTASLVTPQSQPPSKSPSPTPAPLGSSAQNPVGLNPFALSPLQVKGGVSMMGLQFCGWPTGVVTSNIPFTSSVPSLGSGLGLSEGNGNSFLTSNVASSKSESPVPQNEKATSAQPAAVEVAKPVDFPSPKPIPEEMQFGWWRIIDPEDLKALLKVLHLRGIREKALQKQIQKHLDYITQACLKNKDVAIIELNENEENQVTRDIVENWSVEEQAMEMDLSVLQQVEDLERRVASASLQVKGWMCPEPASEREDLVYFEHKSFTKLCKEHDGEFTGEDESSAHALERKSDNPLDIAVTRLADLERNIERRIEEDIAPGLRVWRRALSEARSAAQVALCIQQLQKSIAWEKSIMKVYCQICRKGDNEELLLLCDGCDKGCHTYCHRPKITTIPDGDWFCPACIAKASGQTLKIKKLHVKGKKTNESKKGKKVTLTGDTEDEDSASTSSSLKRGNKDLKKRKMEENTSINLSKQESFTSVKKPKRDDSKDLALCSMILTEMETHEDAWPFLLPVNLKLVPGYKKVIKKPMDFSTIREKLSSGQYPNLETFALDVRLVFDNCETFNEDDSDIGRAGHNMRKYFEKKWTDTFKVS
Method: qHTS Assay for Inhibitors of BAZ2B; also: nearly all actives have a fitted effect of over 60% in size
Condition description: AlphaScreen BAZ2B-H3K14Ac peptide displacement; series mostly up to 114 µM
Hit rate of the full screen: of about 360,000 compounds, about 16,000 (4.4%) were called active. Another 9% or so got no clear call; they are omitted. Calls follow the shape of the dose curve; as a rule, active = well fitted inhibition curve with a large enough effect; inconclusive = small, poorly fitted or top-dose-only effect; inactive = no such curve, though single readings can be large or run the other way. This excerpt belongs to a sample that is enriched for actives.
Labels: 1 (yes) = active, 0 (no) = inactive

- Compound: "CCn1nc(C(=O)Nc2ccc(N3CCOCC3)cc2)c2ccccc2c1=O"
  Class name: "0 (no)"
- Compound: "CC(C)c1ccc(C2C(C(=O)c3ccco3)=C(O)C(=O)N2CC2CCCO2)cc1 (configuration not stated)"
  Class name: "0 (no)"
- Compound: "Cc1ccc(CN2C(=O)N/C(=C/c3cc(C)n(-c4ccccn4)c3C)C2=O)cc1"
  Class name: "0 (no)"
- Compound: "Fc1ccc(-c2nc(Nc3cccc(Cl)c3)nc3c2COc2ccccc2-3)cc1"
  Class name: "0 (no)"
- Compound: "C=CCSc1nnc(N2C(=O)C(O)=C(C(=O)c3ccco3)C2c2ccc(F)cc2)s1 (configuration not stated)"
  Class name: "1 (yes)"
- Compound: "CCN(c1ccccc1)S(=O)(=O)c1cc(C(=O)NCc2ccccn2)ccc1C"
  Class name: "0 (no)"
- Compound: "CCCCCn1c(CCNC(=O)c2ccc(F)cc2)nc2ccccc21"
  Class name: "0 (no)"
- Compound: "CCOc1ccc(C(=O)c2cn(Cc3ccccc3OC)c3ccc(F)cc3c2=O)cc1"
  Class name: "0 (no)"
- Compound: "CSc1c(SCc2ccccc2)cnn(Cc2ccccc2)c1=O"
  Class name: "0 (no)"
- Compound: "CN(C)c1ccc(C(CNC(=O)c2ccc(F)cc2)c2c[nH]c3ccccc23)cc1 (configuration not stated)"
  Class name: "1 (yes)"
- Compound: "Cc1cccc(NC(=O)Cn2cc(S(=O)(=O)Cc3ccccc3Cl)c3ccccc32)c1"
  Class name: "0 (no)"
- Compound: "COc1ccccc1N1CCN(c2ccc(=O)n(CC(=O)NCc3ccc(OC(C)C)cc3)n2)CC1"
  Class name: "0 (no)"
- Compound: "CCCN(CCC)c1ccc(C(O)c2nnc(-c3ccccc3)o2)cc1 (configuration not stated)"
  Class name: "1 (yes)"
- Compound: "COc1cc(C(=O)NCC(c2ccc(Cl)cc2)N2CCOCC2)cc(OC)c1OC (configuration not stated)"
  Class name: "0 (no)"
- Compound: "Cc1cccc(OCCCC(=O)Nc2sc3c(c2C(N)=O)CCC(C)C3)c1 (configuration not stated)"
  Class name: "0 (no)"
- Compound: "O=[N+]([O-])c1cc(C(F)(F)F)ccc1NCCc1ccncc1"
  Class name: "0 (no)"
- Compound: "CC(=O)N1CCCc2cc(S(=O)(=O)Nc3ccc(Cl)cc3F)ccc21"
  Class name: "0 (no)"
- Compound: "CC(NC(=O)c1ccco1)C(=O)Nc1nc(-c2ccccn2)cs1 (configuration not stated)"
  Class name: "1 (yes)"
- Compound: "O=[N+]([O-])c1cc(C(F)(F)F)ccc1NN=C1CCCC1"
  Class name: "1 (yes)"
- Compound: "Cn1c(=O)c2c(nc(SCC(=O)Nc3ccc(F)cc3)n2Cc2ccc(Cl)cc2)n(C)c1=O"
  Class name: "0 (no)"
- Compound: "O=C(NCCN1C(=O)C2C3C=CC(C3)C2C1=O)Nc1ccccn1 (configuration not stated)"
  Class name: "0 (no)"
- Compound: "O=C1CSC2(C(=O)N(Cc3ccccc3)c3ccccc32)N1c1cccc(F)c1 (configuration not stated)"
  Class name: "0 (no)"
- Compound: "Cc1ccc(-c2cnc(C3CC3)o2)cc1S(=O)(=O)Nc1cccc(C)c1C"
  Class name: "0 (no)"
- Compound: "COc1ccc(CN2C(=O)C(NC(=O)c3cccc(C)c3)(C(F)(F)F)N=C2c2ccccc2)cc1 (configuration not stated)"
  Class name: "0 (no)"
- Compound: "O=C(CN1C(=O)C2C3C=CC(C3)C2C1=O)NCCc1ccccc1Cl (configuration not stated)"
  Class name: "0 (no)"
- Compound: "CN(C)c1ccc(/C=C2\\NC(=S)N(Cc3ccccc3)C2=O)cc1"
  Class name: "1 (yes)"
- Compound: "O=C(CNC(=O)c1ccc(F)cc1)c1ccccc1"
  Class name: "0 (no)"
- Compound: "COc1ccc(Cn2c(=O)n(-c3ccccc3C)c(=O)c3c4c(sc32)CN(C(C)=O)CC4)cc1"
  Class name: "0 (no)"
- Compound: "COc1ccccc1C(=O)NCCn1cc(SCc2ccccc2Cl)c2ccccc21"
  Class name: "0 (no)"
- Compound: "O=C(Nc1c(-c2ccc(F)cc2)nc2ccccn12)c1cccc(F)c1"
  Class name: "0 (no)"
- Compound: "O=C(O)c1c(CNCc2cccc(F)c2)c2ccccc2n1Cc1ccccc1"
  Class name: "0 (no)"
- Compound: "CCOc1ccccc1C(=O)NCc1ccc2c(c1)CCN2C(=O)c1ccc(F)cc1"
  Class name: "0 (no)"
- Compound: "Cc1cc(C)c(NC(=O)Cn2c(SCC(=O)NCc3ccccc3)nc3ccccc32)c(C)c1"
  Class name: "0 (no)"
- Compound: "COc1ccc(-c2cn3nc(N4CCCC(C(=O)NCCCOC(C)C)C4)sc3n2)cc1 (configuration not stated)"
  Class name: "0 (no)"
- Compound: "Cc1ccc(-n2c3nc(=O)[nH]c(=O)c-3cc3c(Cl)cccc32)cc1"
  Class name: "0 (no)"
- Compound: "Cc1ccccc1NC(=O)Cn1cc(C(=O)c2cccs2)c2ccccc21"
  Class name: "0 (no)"
- Compound: "CC1=NN(Cc2ccccc2)C(=O)/C1=C/c1ccc(N(C)C)cc1"
  Class name: "1 (yes)"
- Compound: "COc1ccc(-c2c3c(=O)n(C)c(=O)n(C)c3c3c(C)nc4ccccc4n23)cc1"
  Class name: "0 (no)"
- Compound: "CCOc1cc(C(=O)NCCc2csc3nc(-c4ccc(C)cc4)nn23)cc(OCC)c1OCC"
  Class name: "0 (no)"
- Compound: "S=C(Nc1cccc(Cl)c1)Nc1ccc2c(c1)OCCO2"
  Class name: "0 (no)"
- Compound: "CSCCC(NC(=O)c1ccco1)C(=O)Nc1cc(C)ccn1 (configuration not stated)"
  Class name: "0 (no)"
- Compound: "CN(C)c1ccnc2sc3c(=O)n(Cc4ccccc4)cnc3c12"
  Class name: "0 (no)"
